run-description: Saturated solubility of BA in solvents, 25° C., absorbance at 320 nm
Format: physicochemical
measurement-parameters: solvent (liquid filled capsule vehicle), 25 °C, oil or lipid, thermodynamic from solid, 100% Capmul, 25° C.; read-out: BA Solubility
readout-name: solubility (mg/mL)
Please reply with the bare figure in mg/mL and do not write the unit itself.

Problem: Look up solubility for this compound: NC(=O)c1ccc(I)c([N+](=O)[O-])c1 [BA, 4-iodo-3-nitrobenzamide]
Result: 32

* * *

run-description: Saturated solubility of BA in solvents, 25° C., absorbance at 320 nm
Type: physicochemical
measurement-parameters: solvent (liquid filled capsule vehicle), 25 °C, oil or lipid, thermodynamic from solid, 30% v/v DMA in Capmul, 25° C.; read-out: BA Solubility
readout-name: solubility (mg/mL)
Give the value in mg/mL but do not write mg/mL after it.

Problem: So what's the measured solubility for this one? NC(=O)c1ccc(I)c([N+](=O)[O-])c1 [BA, 4-iodo-3-nitrobenzamide]
Result: 176
